Target: human glucagon-like peptide-1 (GLP-1) receptor (human, UniProt P43220 24-463)
Assay: cell-based or functional assay
*1 amine or outer side, *2 acyl side, *3 side chain or, on linkers, in order; H or OH if unused. Where no end group is shown, it is not given here. Side-chain parts run from the residue outwards. [ ]: non-standard residue; d: D form. The star is where a group is joined. αMePhe(2-F) = C[C@](N)(Cc1ccccc1F)C(=O)O; γGlu = O=C(O)[C@H](CCC(=O)[*:2])N[*:1]; C14 diacid = O=C(O)CCCCCCCCCCCCC(=O)*; εLys = N[C@@H](CCCCN[*:1])C(=O)[*:2]; αMeY = C[C@](N)(Cc1ccc(O)cc1)C(=O)O; αMeL = CC(C)C[C@](C)(N)C(=O)O; Orn = NCCC[C@H](N)C(=O)O; Aib = CC(C)(N)C(=O)O
Please use Y for cAMP EC50 under 500 pM and N for everything else, ties included.

Previously resolved entries follow.
>>> category("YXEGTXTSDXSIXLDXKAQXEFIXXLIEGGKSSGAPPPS (Aib2, αMeF(2F)6, 4Pal10, αMeL13, Orn16, K17(Z), Ac5c20, D-Glu24, αMeY25, K31(Z), C-terminal NH2; Z = AEEA2-(γ-Glu)-CO-(CH2)12-CO2H) [Example 170]")
"N"
>>> category("Y[Aib]EGT[αMePhe(2-F)]TSDV[Aib]I[αMeL]LD[Orn]K([εLys-γGlu-C14 diacid])AQ[Aib]EFIK([εLys-γGlu-C14 diacid])[αMeY]LIEGGPSSGAPPPS-NH2 [Example 167]")
"Y"
>>> category("YXEGTXTSDXSIXLDXIAQXKFIXXLIEGGKSSGAPPPS (not fully specified; Aib2, αMeF(2F)6, 4Pal10, αMeL13, Orn16, Aib20, K21(AEEA2-CO-(CH2)12-CO2H), D-Glu24, αMeY25, K31(AEEA2-CO-(CH2)2-CO2H as printed), C-terminal NH2) [Example 195]")
"Y"

Q. Does this binder meet the criterion cAMP EC50 < 500 pM? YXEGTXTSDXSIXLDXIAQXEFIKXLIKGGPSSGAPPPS (Aib2, αMeF(2F)6, 4Pal10, αMeL13, Orn16, Aib20, K24(Z), αMeY25, K28(Z), C-terminal NH2; Z = AEEA2-(γ-Glu)-(11-(4-carboxyphenoxy)undecanoyl)) [Example 286]
A. N
